tested on: antibodies in sera from SARS patients (sera 1a, 1b, 2, 6, 37, 62, London, SARS-yellow, SARS-green); assay type: binding, human
For each record, write down the corresponding Binding of serum London to linear peptides of protein N of SARS-CoV Urbani.
Form rule: numeric answer, no unit written next to it.

Assign Binding of serum London to linear peptides of protein N of SARS-CoV Urbani to the following record: RNGARPKQRRPQGLP
0.5

Answer with the recorded Binding of serum London to linear peptides of protein N of SARS-CoV Urbani for the sequence listed here: RSAPRITFGGPTDST
0.5

State, in one line, measured Binding of serum London to linear peptides of protein N of SARS-CoV Urbani of SRQLQNSMSGASADS
0.6

Identify measured Binding of serum London to linear peptides of protein N of SARS-CoV Urbani associated with NTASWFTALTQHGKE
0.4

Annotate the sequence YYRRATRRVRGGDGK with its measured Binding of serum London to linear peptides of protein N of SARS-CoV Urbani.
0.5

Look up and state reported Binding of serum London to linear peptides of protein N of SARS-CoV Urbani for GALNTPKDHIGTRNP
0.5

// Input: YYLGTGPEASLPYGA . Output its Binding of serum London to linear peptides of protein N of SARS-CoV Urbani only.
0.4

Look up and state reported Binding of serum London to linear peptides of protein N of SARS-CoV Urbani for EPKKDKKKKTDEAQP
0.7

Please look at this sequence and report its Binding of serum London to linear peptides of protein N of SARS-CoV Urbani: PSASAFFGMSRIGME
0.5

Kindly indicate its recorded Binding of serum London to linear peptides of protein N of SARS-CoV Urbani. Item: TEPKKDKKKKTDEAQ
0.6

Item DAYKTFPPTEPKKDK : provide Binding of serum London to linear peptides of protein N of SARS-CoV Urbani
0.6

Identify measured Binding of serum London to linear peptides of protein N of SARS-CoV Urbani corresponding to AQPLPQRQKKQPTVT
1.6

Name the recorded Binding of serum London to linear peptides of protein N of SARS-CoV Urbani of the item TWLTYHGAIKLDDKD in your answer.
0.5

State its Binding of serum London to linear peptides of protein N of SARS-CoV Urbani: FPRGQGVPINTNSGP
0.5

Tell me its Binding of serum London to linear peptides of protein N of SARS-CoV Urbani given LNKHIDAYKTFPPTE as the entry.
0.4

Note down Binding of serum London to linear peptides of protein N of SARS-CoV Urbani recorded for TVTLLPAADMDDFSR
0.5

Given TRRVRGGDGKMKELS , respond with its Binding of serum London to linear peptides of protein N of SARS-CoV Urbani.
0.5

Determine from records and report Binding of serum London to linear peptides of protein N of SARS-CoV Urbani for PINTNSGPDDQIGYY
0.4

Look up Binding of serum London to linear peptides of protein N of SARS-CoV Urbani of FKDNVILLNKHIDAY and report it.
0.5

Dear colleague, please send me the reported Binding of serum London to linear peptides of protein N of SARS-CoV Urbani for APSASAFFGMSRIGM when you can.
0.6

Assign Binding of serum London to linear peptides of protein N of SARS-CoV Urbani to the following record: KDNVILLNKHIDAYK
0.6

For the sequence QPTVTLLPAADMDDF , give its reported Binding of serum London to linear peptides of protein N of SARS-CoV Urbani.
0.5

Please indicate Binding of serum London to linear peptides of protein N of SARS-CoV Urbani recorded for NSGPDDQIGYYRRAT
0.4

Respond only with Binding of serum London to linear peptides of protein N of SARS-CoV Urbani recorded for LRFPRGQGVPINTNS
0.5

Name the recorded Binding of serum London to linear peptides of protein N of SARS-CoV Urbani of the sequence listed here: DKKKKTDEAQPLPQR
0.5

Please report Binding of serum London to linear peptides of protein N of SARS-CoV Urbani for the following sequence: NKHIDAYKTFPPTEP
0.5

Complete the entry with Binding of serum London to linear peptides of protein N of SARS-CoV Urbani for TDEAQPLPQRQKKQP
1.2

Look up and report measured Binding of serum London to linear peptides of protein N of SARS-CoV Urbani for this entry: QRRPQGLPNNTASWF
0.4

Give recorded Binding of serum London to linear peptides of protein N of SARS-CoV Urbani. RGQGVPINTNSGPDD
0.4

Check the records and state Binding of serum London to linear peptides of protein N of SARS-CoV Urbani for APRITFGGPTDSTDN
0.6

Look up Binding of serum London to linear peptides of protein N of SARS-CoV Urbani of RQLQNSMSGASADST and report it.
0.6

Tell me its Binding of serum London to linear peptides of protein N of SARS-CoV Urbani given LLPAADMDDFSRQLQ as the entry.
0.6

Annotate the sequence KEELRFPRGQGVPIN with its measured Binding of serum London to linear peptides of protein N of SARS-CoV Urbani.
0.5

Output measured Binding of serum London to linear peptides of protein N of SARS-CoV Urbani for this item: LSPRWYFYYLGTGPE
0.5

Return Binding of serum London to linear peptides of protein N of SARS-CoV Urbani for the following sequence: LPAADMDDFSRQLQN
0.5

Read the entry MDDFSRQLQNSMSGA and write its reported Binding of serum London to linear peptides of protein N of SARS-CoV Urbani.
0.8

Output measured Binding of serum London to linear peptides of protein N of SARS-CoV Urbani for this item: HIGTRNPNNNAATVL
0.5
